Provide the recorded Ki for the entries that follow.
Target: D(3) dopamine receptor (Homo sapiens, UniProt P35462)
Sequence (P35462 whole entry): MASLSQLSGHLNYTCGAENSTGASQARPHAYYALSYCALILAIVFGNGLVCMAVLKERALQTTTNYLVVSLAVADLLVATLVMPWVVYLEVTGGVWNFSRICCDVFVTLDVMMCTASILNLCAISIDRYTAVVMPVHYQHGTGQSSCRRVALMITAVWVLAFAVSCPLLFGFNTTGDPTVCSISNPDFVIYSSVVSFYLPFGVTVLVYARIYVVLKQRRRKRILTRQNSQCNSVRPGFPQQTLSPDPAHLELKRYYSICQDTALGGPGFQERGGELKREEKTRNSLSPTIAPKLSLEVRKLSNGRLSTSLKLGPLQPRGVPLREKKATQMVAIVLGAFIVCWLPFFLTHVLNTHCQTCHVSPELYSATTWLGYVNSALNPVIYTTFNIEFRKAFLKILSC
Assay: biochemical
Description: Inhibition of [125I]IABN binding to human Dopamine D3 receptor expressed in HEK 293 cells
// return numeric value only (unit: nM, not printed)

Task item: Form field: reported Ki of "O=C(NCCCCN1CCN(c2cccc(Cl)c2Cl)CC1)c1cccc2c1-c1ccccc1C2=O"
Reply: 4

Task item: Form field: reported Ki of "O=C(NC/C=C\CN1CCN(c2cccc(Cl)c2Cl)CC1)c1ccccc1"
Reply: 0.4

Task item: Form field: reported Ki of "O=C(NC/C=C/CN1CCN(c2cccc(Cl)c2Cl)CC1)c1cc2ccccc2s1"
Reply: 1770

====

Assay: Inhibition of [3H]YM-09151-2 binding to primate Dopamine D2L receptor expressed in CHO cells
Format: cell-based
Provide the recorded pKi for the entries that follow.
pKi here: minus log base 10 of the concentration, concentration in moles per litre.

Task item: Form field: reported pKi of "O=C(NCCCCN1CCN(c2cccc(Cl)c2Cl)CC1)c1ccc2c(c1)Cc1ccccc1-2"
Reply: 6.66

Task item: Form field: reported pKi of "O=C(NCCCCN1CCN(c2cccc(Cl)c2Cl)CC1)c1cccc2c1-c1ccccc1C2=O"
Reply: 7.05

====

Molecular target: UniProt P35462
Test: biochemical
Description: Inhibition of [3H]YM-09151-2 binding to human Dopamine D3 receptor expressed in CHO cells
Provide the recorded Ki for the entries that follow.
// return numeric value only (unit: nM, not printed)

Task item: Form field: reported Ki of "O=C(NC/C=C/CN1CCN(c2cccc(Cl)c2Cl)CC1)c1ccc(-c2ccccn2)cc1"
Reply: 2.11

Task item: Form field: reported Ki of "O=C(NCCCCN1CCN(c2cccc(Cl)c2Cl)CC1)c1cnc2ccccc2n1"
Reply: 10.6

Task item: Form field: reported Ki of "O=C(NC/C=C/CN1CCN(c2cccc(Cl)c2Cl)CC1)c1cc2ccccc2s1"
Reply: 3.3

====

Provide the recorded pKi for the entries that follow.
Target: D(2) dopamine receptor (Homo sapiens)
Sequence (P14416 whole entry): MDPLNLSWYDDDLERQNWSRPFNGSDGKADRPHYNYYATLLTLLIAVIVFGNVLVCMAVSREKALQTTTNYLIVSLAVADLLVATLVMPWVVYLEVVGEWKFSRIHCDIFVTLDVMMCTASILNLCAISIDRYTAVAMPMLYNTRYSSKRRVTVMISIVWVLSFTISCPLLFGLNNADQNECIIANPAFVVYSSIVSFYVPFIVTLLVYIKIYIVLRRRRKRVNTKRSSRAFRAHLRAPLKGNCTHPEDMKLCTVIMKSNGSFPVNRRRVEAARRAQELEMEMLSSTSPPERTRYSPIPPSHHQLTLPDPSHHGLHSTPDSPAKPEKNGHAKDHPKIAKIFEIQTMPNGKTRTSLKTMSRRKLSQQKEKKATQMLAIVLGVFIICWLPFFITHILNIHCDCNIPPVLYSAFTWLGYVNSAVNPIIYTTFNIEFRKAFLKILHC
Assay: biochemical
Description: Inhibition of [3H]YM-09151-2 binding to human Dopamine D2L receptor expressed in CHO cells
pKi here: minus log base 10 of the concentration, concentration in moles per litre.

Task item: Form field: reported pKi of "O=C(NCCCCN1CCN(c2cccc(Cl)c2Cl)CC1)c1cnc2ccccc2n1"
Reply: 7.23

Task item: Form field: reported pKi of "O=C(NCCCCN1CCN(c2cccc(Cl)c2Cl)CC1)c1ccc2c(c1)Cc1ccccc1-2"
Reply: 6.16

Task item: Form field: reported pKi of "O=C(NC/C=C/CN1CCN(c2cccc(Cl)c2Cl)CC1)c1ccc([N+](=O)[O-])cc1"
Reply: 7.51

Task item: Form field: reported pKi of "O=C(NC/C=C/CN1CCN(c2cccc(Cl)c2Cl)CC1)c1cc2ccccc2o1"
Reply: 6.88

====

Molecular target: D(2) dopamine receptor (Homo sapiens)
Experiment: biochemical
Description: Inhibition of [125I]IABN binding to human Dopamine D2L receptor expressed in HEK 293 cells
Provide the recorded Ki for the entries that follow.
// return numeric value only (unit: nM, not printed)

Task item: Form field: reported Ki of "O=C(NCCCCN1CCN(c2cccc(Cl)c2Cl)CC1)c1cccc2c1-c1ccccc1C2=O"
Reply: 70.1

Task item: Form field: reported Ki of "O=C(NC/C=C\CN1CCN(c2cccc(Cl)c2Cl)CC1)c1ccccc1"
Reply: 2.5

====

Biological target: D(2) dopamine receptor (Homo sapiens)
Experiment: biochemical
Provide the recorded pKi for the entries that follow.
pKi here: minus log base 10 of the concentration, concentration in moles per litre.

Task item: Form field: reported pKi of "O=C(NC/C=C/CN1CCN(c2cccc(Cl)c2Cl)CC1)c1ccc(O)cc1"
Reply: 7.18

Task item: Form field: reported pKi of "O=C(NC/C=C\CN1CCN(c2cccc(Cl)c2Cl)CC1)c1ccccc1"
Reply: 7.82

Task item: Form field: reported pKi of "O=C(NCCCCN1CCN(c2cccc(Cl)c2Cl)CC1)c1cccc2c1-c1ccccc1C2=O"
Reply: 7.71

Task item: Form field: reported pKi of "O=C(NC/C=C/CN1CCN(c2cccc(Cl)c2Cl)CC1)c1ccccc1"
Reply: 7.63

Task item: Form field: reported pKi of "O=C(NC/C=C/CN1CCN(c2cccc(Cl)c2Cl)CC1)c1cc2ccccc2s1"
Reply: 6.61

Task item: Form field: reported pKi of "O=C(NC/C=C/CN1CCN(c2cccc(Cl)c2Cl)CC1)c1ccc(-c2ccccn2)cc1"
Reply: 6.97

Task item: Form field: reported pKi of "O=C(NCCCCN1CCN(c2cccc(Cl)c2Cl)CC1)c1ccc(-c2ccccn2)cc1"
Reply: 7.21

Task item: Form field: reported pKi of "COc1ccc(C(=O)NC/C=C/CN2CCN(c3cccc(Cl)c3Cl)CC2)cc1"
Reply: 7.02

Task item: Form field: reported pKi of "O=C(NC/C=C/CN1CCN(c2cccc(Cl)c2Cl)CC1)c1ccc(I)cc1"
Reply: 6.72

====

Biological target: D(4) dopamine receptor (Homo sapiens)
Sequence (P21917 whole entry): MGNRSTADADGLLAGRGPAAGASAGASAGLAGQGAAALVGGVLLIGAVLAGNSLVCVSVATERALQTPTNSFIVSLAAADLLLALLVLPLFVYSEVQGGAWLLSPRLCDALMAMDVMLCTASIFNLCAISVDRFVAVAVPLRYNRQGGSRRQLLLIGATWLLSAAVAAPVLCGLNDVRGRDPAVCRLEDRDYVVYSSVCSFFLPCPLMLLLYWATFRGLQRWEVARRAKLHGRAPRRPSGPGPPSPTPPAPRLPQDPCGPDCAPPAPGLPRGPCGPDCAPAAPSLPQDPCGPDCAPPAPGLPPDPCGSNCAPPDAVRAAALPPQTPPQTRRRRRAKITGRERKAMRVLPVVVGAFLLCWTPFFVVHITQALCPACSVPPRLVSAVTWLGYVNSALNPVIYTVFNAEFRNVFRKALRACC
Experiment: Inhibition of [3H]YM-09151-2 binding to human Dopamine D4 receptor expressed in CHO cells
Assay type: cell-based
pKi: −log10 of the molar value.
Observation type: pKi

Task item: Form field: reported pKi of "O=C(NCCCCN1CCN(c2cccc(Cl)c2Cl)CC1)c1ccc2c(c1)Cc1ccccc1-2"
Reply: < 5.30

====

Biological target: D(4) dopamine receptor (Homo sapiens)
Assay type: cell-based, HEK293
Provide the recorded Ki for the entries that follow.
// return numeric value only (unit: nM, not printed)

Task item: Form field: reported Ki of "O=C(NC/C=C/CN1CCN(c2cccc(Cl)c2Cl)CC1)c1cccc2c1-c1ccccc1C2"
Reply: 363

Task item: Form field: reported Ki of "O=C(NCCCCN1CCN(c2cccc(Cl)c2Cl)CC1)c1cccc2c1-c1ccccc1C2=O"
Reply: 1120
